I'd be grateful if you could share measured pIC50 for these entries.
- TGT: human HPK1 (MAP4K1) (Homo sapiens)
- Construct: Recombinant human HPK1 kinase domain was obtained from ThermoFisher (Cat. #PV6357) and SignalChem (Cat. #M23-11G); SignalChem PV6357; M23-11G
- Sequence (Q92918 17-274 limits assumed): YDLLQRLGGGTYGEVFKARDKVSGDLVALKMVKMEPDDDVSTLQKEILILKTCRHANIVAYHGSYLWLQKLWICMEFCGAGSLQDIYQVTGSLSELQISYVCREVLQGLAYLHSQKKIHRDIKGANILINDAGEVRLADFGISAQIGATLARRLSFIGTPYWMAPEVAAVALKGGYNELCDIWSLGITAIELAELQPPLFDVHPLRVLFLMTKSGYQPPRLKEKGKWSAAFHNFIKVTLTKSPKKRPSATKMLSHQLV
- PROCEDURE_TEXT: Biochemical assay for activity against HPK1 (ADP-Glo, MBP substrate)
- MEASUREMENT_CONTEXT: recombinant human HPK1 kinase domain, 1 nM enzyme, ADP-Glo luminescence
pIC50: −log10 of the molar value.

Entry COc1cc2c(cc1Nc1ncc3cnn([C@H]4CC[C@@H](O)CC4)c3n1)CN(C)CC2 needs its pIC50 filled in; supply it.
> 7.00

Entry COc1cc2c(cc1Nc1ncc3cnn(C[C@@H]4CCN4C(C)=O)c3n1)CN(C)CC2 needs its pIC50 filled in; supply it.
6.60 to 7.00

Entry COc1cc2c(cc1Nc1ncc3cnn(C[C@@H]4CCCCN4C(C)=O)c3n1)CN(C)CC2 needs its pIC50 filled in; supply it.
> 7.00

Entry COc1cc2c(cc1Nc1ncc3cnn(C4CCN(C(=O)C(F)(F)F)CC4)c3n1)CN(C)CC2 needs its pIC50 filled in; supply it.
6.60 to 7.00

Entry COc1cc2c(cc1Nc1ncc3cnn(C[C@@H]4CCC[C@H]4CO)c3n1)CN(C)CC2 (racemic) needs its pIC50 filled in; supply it.
> 7.00

Entry COc1cc2c(cc1Nc1ncc3c(C)nn([C@@H]4CCC[C@@H](C(N)=O)C4)c3n1)CN(C)CC2 needs its pIC50 filled in; supply it.
> 7.00

Entry COc1cc2c(cc1Nc1ncc3cnn(CC4(C)CC4)c3n1)CN(C)CC2 needs its pIC50 filled in; supply it.
> 7.00

Entry COc1cc2c(cc1Nc1ncc3cnn(CC4CCCOC4)c3n1)CN(C)CC2 (racemic) needs its pIC50 filled in; supply it.
> 7.00
